# SUBJECT_OF_TEST: Insulin-degrading enzyme (Homo sapiens) (UniProt P14735)
# Sequence (P14735 42-1019 limits assumed): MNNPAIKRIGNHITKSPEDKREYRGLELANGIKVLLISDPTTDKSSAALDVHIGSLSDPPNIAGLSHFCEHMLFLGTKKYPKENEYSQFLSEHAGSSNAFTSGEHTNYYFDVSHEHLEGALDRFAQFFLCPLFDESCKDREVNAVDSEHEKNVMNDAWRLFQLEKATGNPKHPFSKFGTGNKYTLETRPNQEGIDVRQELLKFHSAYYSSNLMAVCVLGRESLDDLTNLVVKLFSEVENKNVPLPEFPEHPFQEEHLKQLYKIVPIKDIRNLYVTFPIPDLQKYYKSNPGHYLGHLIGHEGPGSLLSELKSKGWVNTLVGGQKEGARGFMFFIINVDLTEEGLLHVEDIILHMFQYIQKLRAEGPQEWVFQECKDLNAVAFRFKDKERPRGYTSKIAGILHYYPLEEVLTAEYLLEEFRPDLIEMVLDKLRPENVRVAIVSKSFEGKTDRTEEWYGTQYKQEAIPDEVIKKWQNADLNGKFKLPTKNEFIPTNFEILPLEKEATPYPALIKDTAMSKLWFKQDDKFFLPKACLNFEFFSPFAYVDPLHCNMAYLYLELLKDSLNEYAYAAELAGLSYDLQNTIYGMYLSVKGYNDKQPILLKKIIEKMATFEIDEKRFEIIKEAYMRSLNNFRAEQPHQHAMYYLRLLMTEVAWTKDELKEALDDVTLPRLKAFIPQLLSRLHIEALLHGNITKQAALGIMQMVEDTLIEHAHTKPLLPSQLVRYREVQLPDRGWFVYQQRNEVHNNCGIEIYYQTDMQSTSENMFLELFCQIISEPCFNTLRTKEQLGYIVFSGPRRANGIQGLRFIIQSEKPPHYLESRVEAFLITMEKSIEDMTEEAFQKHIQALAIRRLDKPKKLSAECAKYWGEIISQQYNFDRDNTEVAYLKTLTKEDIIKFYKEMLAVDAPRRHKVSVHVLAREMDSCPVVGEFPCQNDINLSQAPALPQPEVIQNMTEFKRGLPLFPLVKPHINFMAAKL
# ASSAY_DETAILS: inhibitors of IDE decapeptide proteolysis, dose response, counter-screen for IDE exo-site inhibitor project, biochemical, kinetic mode (AID 1259348)
# CONDITION_DETAILS: purified human IDE, fluorogenic decapeptide proteolysis
The source made the active and inactive calls.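 How the source made its calls: active means any compound with an IC50 of 100 nM or lower; inactive means the rest.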
API: response.call in TRUE (active), FALSE (inactive)

Task item: What did the test return for "Cc1cccc(-c2ccc([C@@H]3[C@@H](CO)N4CCCCN(S(=O)(=O)c5ccccc5C)C[C@@H]34)cc2)c1" ?
Reply: TRUE

Task item: What did the test return for "CO[C@H]1CN(C)C(=O)c2cc(NC(=O)c3ccc(Oc4ccccc4)cc3)ccc2OC[C@@H](C)NC[C@@H]1C" ?
Reply: TRUE

Task item: What did the test return for "O=C(c1ccccn1)N1CC(=O)N2[C@@H](CO)[C@@H](c3ccc(C#Cc4ccccc4)cc3)[C@@H]2C1" ?
Reply: TRUE

Task item: What did the test return for "COc1ccccc1C#Cc1ccc([C@H]2[C@H](CO)N3CCCCN(C(=O)C4CCC4)C[C@@H]23)cc1" ?
Reply: TRUE

Task item: What did the test return for "COc1ccccc1-c1ccc([C@H]2[C@@H](CO)N(C(=O)NC(C)C)[C@H]2C#N)cc1" ?
Reply: TRUE

Task item: What did the test return for "COc1ccccc1-c1ccc([C@@H]2[C@@H](C#N)N(C(=O)CN(C)C)[C@H]2CO)cc1" ?
Reply: TRUE

Task item: What did the test return for "COc1ccccc1NC(=O)N1CCCCN2[C@H](CO)[C@@H](c3ccc(-c4cccc(C)c4)cc3)[C@@H]2C1" ?
Reply: TRUE

Task item: What did the test return for "Cc1cccc(-c2ccc([C@@H]3[C@@H](CO)N4CCCCN(C(=O)c5ccc6c(c5)OCO6)C[C@@H]34)cc2)c1" ?
Reply: FALSE

Task item: What did the test return for "Cc1ccccc1-c1ccc([C@H]2[C@@H](CO)N3CCCCN(C(=O)CN4CCOCC4)C[C@@H]23)cc1" ?
Reply: TRUE

Task item: What did the test return for "Cc1ccccc1-c1ccc([C@H]2[C@@H](CO)N3CCCCN(C(=O)c4cccnc4)C[C@@H]23)cc1" ?
Reply: TRUE

Task item: What did the test return for "Cc1ccccc1-c1ccc([C@H]2[C@@H](CO)N3CCCCN(C(=O)Nc4cccc(F)c4)C[C@@H]23)cc1" ?
Reply: TRUE

Task item: What did the test return for "COc1ccc(NC(=O)N2CCCCN3[C@H](CO)[C@H](c4ccc(-c5ccccc5C)cc4)[C@@H]3C2)cc1" ?
Reply: TRUE

Task item: What did the test return for "Cc1cccc(-c2ccc([C@@H]3[C@@H](CO)N4CCCCN(C(=O)c5ccncc5)C[C@@H]34)cc2)c1" ?
Reply: TRUE

Task item: What did the test return for "Cc1cccc(-c2ccc([C@@H]3[C@@H](CO)N4C(=O)CN(C(=O)c5cnccn5)C[C@@H]34)cc2)c1" ?
Reply: TRUE

Task item: What did the test return for "CCS(=O)(=O)N1CCCCN2[C@@H](CO)[C@@H](c3ccc(C#Cc4ccccc4OC)cc3)[C@@H]2C1" ?
Reply: TRUE

Task item: What did the test return for Cc1ccccc1-c1ccc(C2[C@@H]3CN(Cc4cocn4)C[C@H]2N3)cc1 (stereo partly drawn) ?
Reply: TRUE

Task item: What did the test return for "O=C(CC1CC1)N1CC(=O)N2[C@H](C1)[C@H](c1ccc(C#Cc3ccccc3)cc1)[C@@H]2CO" ?
Reply: TRUE

Task item: What did the test return for "Cc1cccc(-c2ccc([C@@H]3[C@H]4CN(C(=O)c5ccncc5)CCCCN4[C@H]3CO)cc2)c1" ?
Reply: TRUE

Task item: What did the test return for Cc1ccccc1-c1ccc(C2[C@@H]3CN(C(=O)C4CCOCC4)C[C@H]2N3)cc1 (stereo partly drawn) ?
Reply: TRUE

Task item: What did the test return for "Cc1ccccc1-c1ccc([C@@H]2[C@@H](CO)N3C(=O)CN(S(C)(=O)=O)C[C@@H]23)cc1" ?
Reply: TRUE

Task item: What did the test return for "OC[C@H]1[C@@H](c2ccc(C#Cc3ccccc3)cc2)[C@@H]2CN(Cc3cncnc3)CCCCN12" ?
Reply: TRUE

Task item: What did the test return for O=C(c1ccncc1)N1C[C@@H]2N[C@H](C1)C2c1ccc(/C=C/c2ccccc2)cc1 (stereo partly drawn) ?
Reply: TRUE

Task item: What did the test return for "COc1cccc(C#Cc2ccc([C@@H]3[C@H](CO)N4C(=O)CN(C(=O)Cc5cccnc5)C[C@@H]34)cc2)c1" ?
Reply: TRUE

Task item: What did the test return for "O=C(NC1CCCC1)N1CCCCN2[C@@H](CO)[C@H](c3ccc(/C=C/c4ccccc4)cc3)[C@@H]2C1" ?
Reply: TRUE

Task item: What did the test return for "Cc1cccc(-c2ccc([C@@H]3[C@@H](CO)N4CCCCN(S(=O)(=O)c5cn(C)cn5)C[C@@H]34)cc2)c1" ?
Reply: TRUE

Task item: What did the test return for "Cc1ccccc1-c1ccc([C@H]2[C@@H](CO)N3CCCCN(S(C)(=O)=O)C[C@@H]23)cc1" ?
Reply: FALSE

Task item: What did the test return for "Cc1ccccc1-c1ccc([C@H]2[C@@H](CO)N3CCCCN(CC4CC4)C[C@@H]23)cc1" ?
Reply: TRUE

Task item: What did the test return for "CO[C@@H]1CN(C)C(=O)c2cc(NC(=O)c3ccc(Oc4ccccc4)cc3)ccc2OC[C@@H](C)NC[C@@H]1C" ?
Reply: TRUE

Task item: What did the test return for "CCCNC(=O)N1CC(=O)N2[C@@H](CO)[C@H](c3ccc(-c4cccc(C)c4)cc3)[C@@H]2C1" ?
Reply: TRUE

Task item: What did the test return for "Cc1cccc(-c2ccc([C@@H]3[C@@H](CO)N4CCCCN(Cc5cncnc5)C[C@@H]34)cc2)c1" ?
Reply: TRUE

Task item: What did the test return for Cc1ccccc1-c1ccc(C2[C@@H]3CN(S(=O)(=O)c4cn(C)cn4)C[C@H]2N3)cc1 (stereo partly drawn) ?
Reply: TRUE

Task item: What did the test return for "Cc1cccc(-c2ccc([C@@H]3[C@@H](CO)N4CCCCN(C(=O)c5cccnc5)C[C@@H]34)cc2)c1" ?
Reply: FALSE

Task item: What did the test return for "CCC(=O)N1[C@H](CO)[C@H](c2ccc(-c3ccccc3OC)cc2)[C@H]1CNC(C)=O" ?
Reply: TRUE
